test system: MDAMB231; test: Cell proliferation assay (Alamar Blue); type: cell-based; conditions: Homo sapiens, MDA-MB-231, 96 h, MDAMB231 cells, four days
Value type: IC50 (µM)

                                   compound  system_name  op  observed_measurement
0  CNc1ncc2c(n1)c(Nc1ccccc1)nc1cc(C(=O)O)ccc12 [drawing 383]     MDAMB231   =                  2.38
1  C#Cc1cccc(Nc2nc3cc(C(=O)O)ccc3c3cnc(NC)nc23)c1 [drawing 403]     MDAMB231   =                  5.21
2  CN(C)c1ncc2c(n1)c(Nc1cccc(Cl)c1)nc1cc(C(=O)O)ccc12 [drawing 409]     MDAMB231   =                  9.82
3  O=C(O)c1ccc2c(c1)nc(Nc1ccccc1)c1nc(NC3CCNCC3)ncc12 [drawing 394]     MDAMB231   >                    50
4  CNC(=O)c1ccc2c(c1)nc(Nc1cccc(C(F)(F)F)c1)c1nc(NC3CC3)ncc12 [drawing 437]     MDAMB231   =                  10.5
5  O=C(O)c1ccc2c(c1)nc(Nc1cccc(Cl)c1)c1nc(O)ncc12 [drawing 421]     MDAMB231   >                    50
6  C#Cc1cccc(Nc2nc3cc(C(=O)O)ccc3c3cnc(NCCOCC)nc23)c1 [drawing 418]     MDAMB231   =                  31.6
7  O=C(O)c1ccc2c(c1)nc(Nc1cc(F)cc(F)c1)c1nc(NC3CC3)ncc12 [drawing 429]     MDAMB231   =                    23

----------
system: A549; experiment: Cell proliferation assay (Alamar Blue); assay type: cell-based; conditions: Homo sapiens, 96 h, A549 cells, four days
Recorded IC50 by entry
Value type: IC50

In [3]: df
Out[3]:
                                   molecule  observed_measurement
0  Fc1cccc(Nc2nc3cc(-c4nnn[nH]4)ccc3c3cnccc23)c1 [drawing 381]               > 50 µM
1  Fc1cc(Nc2nc3cc(-c4nnn[nH]4)ccc3c3cnccc23)ccc1Cl [drawing 382]               > 50 µM
2  Clc1cccc(Nc2nc3cc(-c4nnn[nH]4)ccc3c3cnccc23)c1 [drawing 386]               > 50 µM

----------
test system: MiaPaCa; assay: Cell proliferation assay (Alamar Blue); assay type: cell-based; details: Homo sapiens, MIA PaCa-2, 96 h, MiaPaCa cells, four days
Recorded IC50 by entry
Value type: IC50 (µM)

>>> df
                                   compound  value_type  observed_measurement
0  O=C(O)c1ccc2c(c1)nc(Nc1ccccc1)c1nc(NC3CCNCC3)ncc12 [drawing 323]        IC50                  14.4
1  O=C(O)c1ccc2c(c1)nc(Nc1ccccc1)c1nc(Nc3ccccc3)ncc12 [drawing 369]        IC50                  5.12
2  O=C(O)c1ccc2c(c1)nc(Nc1ccc(Cl)cc1)c1ccncc12 [drawing 308]        IC50                   2.7
